Observed AC50 values for Glutamate receptor ionotropic, NMDA 1 (Rattus norvegicus) are listed in what follows.

O=C(Nc1nc(-c2cc(Cl)cs2)c(N2CCN(C3CCCCC3)CC2)s1)c1cnc(N2CCC(C(=O)O)CC2)c(Cl)c1; > 10 µM

(Q) What value of measured AC50 is listed for N#C[C@@H]1CCCN1C(=O)CNC12CC3CC(CC(O)(C3)C1)C2 ?
(A) > 30 µM

(Q) Try this compound too: CCOC(=O)Nc1ccc2c(c1)N(C(=O)CCN1CCOCC1)c1ccccc1S2
(A) > 30 µM

(Q) Field entry: Cc1cccc(N(C)C(=S)Oc2ccc3ccccc3c2)c1 [TOLNAFTATE]
(A) > 10 µM

(Q) Here is the next compound: CN(c1nccc(=O)[nH]1)C1CCN(c2nc3ccccc3n2Cc2ccc(F)cc2)CC1
(A) > 30 µM

(Q) Query OCCN1CCN(CC/C=C2/c3ccccc3Sc3ccc(Cl)cc32)CC1 next
(A) > 10 µM

(Q) Proceed to CNCC[C@H](Oc1cccc2ccccc12)c1cccs1
(A) > 10 µM

---

# Target Or Test System: Growth hormone secretagogue receptor type 1 (Homo sapiens, UniProt Q92847); note: assay procedure not described here
# Sequence (Q92847 whole entry): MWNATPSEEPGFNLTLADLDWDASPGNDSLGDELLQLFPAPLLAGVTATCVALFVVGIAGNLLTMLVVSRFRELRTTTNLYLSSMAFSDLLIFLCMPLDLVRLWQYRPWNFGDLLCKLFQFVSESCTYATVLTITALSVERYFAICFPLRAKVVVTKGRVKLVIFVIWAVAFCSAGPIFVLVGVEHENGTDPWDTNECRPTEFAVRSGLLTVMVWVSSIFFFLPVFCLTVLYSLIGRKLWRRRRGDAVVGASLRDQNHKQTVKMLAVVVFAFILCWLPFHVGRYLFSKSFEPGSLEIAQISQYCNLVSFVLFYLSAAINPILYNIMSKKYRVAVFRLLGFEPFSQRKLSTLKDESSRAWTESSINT
Measurement Type: AC50

Use the examples below as a reference point.
CC(=N)N1CC[C@H](SC2=C(C(=O)O)N3C(=O)[C@H]([C@@H](C)O)[C@H]3C2)C1; > 300 µM
CN(C)C(=O)Oc1cc(OC(=O)N(C)C)cc(C(O)CNC(C)(C)C)c1 (configuration not stated); > 30 µM
CN1c2ccccc2C(NCCCCCCC(=O)O)c2ccc(Cl)cc2S1(=O)=O (configuration not stated); > 30 µM
O=C1NC(=O)C(c2ccccc2)(c2ccccc2)N1; > 30 µM
O=C(O)c1cc(O)c2c3nc4ccccc4oc-3cc(=O)c2n1; > 30 µM

(Q) Any idea what AC50 was measured for CCC(C)(Oc1ccc(C2(c3ccc(OC(C)(CC)C(=O)O)cc3)CCCCC2)cc1)C(=O)O (configuration not stated) [CLINOFIBRATE] ?
(A) > 30 µM

(Q) Continue with CCN(CC)C(=O)C1CN2CCc3cc(OC)c(OC)cc3C2CC1OC(C)=O (configuration not stated) [BENZQUINAMIDE]
(A) > 30 µM

(Q) Would you kindly repeat that for Nc1ccn([C@@H]2O[C@H](CO)[C@@H](O)C2(F)F)c(=O)n1 ?
(A) > 30 µM

(Q) Would you mind doing N[C@H](Cc1cc(I)c(Oc2cc(I)c(O)c(I)c2)c(I)c1)C(=O)O as well?
(A) > 30 µM

(Q) # repeat for CCOC(=O)NNc1ccc(N(CC)CC(C)O)nn1 (configuration not stated)
(A) > 30 µM

(Q) Continue with CC[C@H]1OC(=O)[C@H](C)[C@@H](O[C@H]2C[C@@](C)(OC)[C@@H](O)[C@H](C)O2)[C@H](C)[C@@H](O[C@@H]2O[C@H](C)C[C@H](N(C)C)[C@H]2O)[C@](C)(OC)C[C@@H](C)C(=O)[C@H](C)[C@@H](O)[C@]1(C)O
(A) > 30 µM

(Q) And the next one, NS(=O)(=O)c1cc(C2(O)NC(=O)c3ccccc32)ccc1Cl (configuration not stated) ?
(A) > 10 µM

(Q) // next record C[C@H]1Oc2cc(cnc2N)-c2c(nn(C)c2C#N)CN(C)C(=O)c2ccc(F)cc21
(A) > 30 µM

(Q) Same question for O=C(Nc1c(Cl)cncc1Cl)c1ccc(OC(F)F)c(OCC2CC2)c1 please.
(A) > 30 µM

(Q) Try the compound COc1cccc(N(C)C(=S)Oc2ccc3c(c2)CCCC3)n1 [LIRANAFTATE]
(A) > 30 µM

(Q) Entry to check: CCn1cc(C(=O)O)c(=O)c2cc(F)c(N3CCNCC3)nc21
(A) > 30 µM

(Q) Next up: CC1(C)S[C@@H]2[C@H](NC(=O)[C@H](N)c3ccc(O)cc3)C(=O)N2[C@H]1C(=O)O
(A) > 30 µM

---

AC50 reference
# Target Or Test System: UniProt P13631
# Sequence (P13631 whole entry): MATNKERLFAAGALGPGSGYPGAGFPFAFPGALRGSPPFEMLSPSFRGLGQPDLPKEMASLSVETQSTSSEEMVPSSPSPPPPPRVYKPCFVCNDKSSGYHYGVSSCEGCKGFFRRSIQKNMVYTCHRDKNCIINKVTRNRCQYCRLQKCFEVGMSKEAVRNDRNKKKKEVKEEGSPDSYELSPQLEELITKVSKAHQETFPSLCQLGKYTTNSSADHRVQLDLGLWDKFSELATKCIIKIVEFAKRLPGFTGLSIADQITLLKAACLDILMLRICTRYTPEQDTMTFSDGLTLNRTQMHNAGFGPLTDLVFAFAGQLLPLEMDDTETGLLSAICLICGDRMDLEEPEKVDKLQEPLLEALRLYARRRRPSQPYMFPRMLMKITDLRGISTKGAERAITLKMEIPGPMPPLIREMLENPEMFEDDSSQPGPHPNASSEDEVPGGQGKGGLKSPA
# Format: functional, cell-based
Just the number in µM, nothing appended.

CNC(=O)c1cc(Oc2ccc(NC(=O)Nc3ccc(Cl)c(C(F)(F)F)c3)c(F)c2)ccn1; 9

Moving on to another compound below.
(Q) Given the entry CC1(C)S[C@@H]2[C@H](NC(=O)[C@H](N)c3ccc(O)cc3)C(=O)N2[C@H]1C(=O)O , report its measured AC50.
(A) 9.1

---

# Target Or Test System: Alpha-2C adrenergic receptor (Homo sapiens, UniProt P18825); note: assay procedure not described here
# Sequence (P18825 whole entry): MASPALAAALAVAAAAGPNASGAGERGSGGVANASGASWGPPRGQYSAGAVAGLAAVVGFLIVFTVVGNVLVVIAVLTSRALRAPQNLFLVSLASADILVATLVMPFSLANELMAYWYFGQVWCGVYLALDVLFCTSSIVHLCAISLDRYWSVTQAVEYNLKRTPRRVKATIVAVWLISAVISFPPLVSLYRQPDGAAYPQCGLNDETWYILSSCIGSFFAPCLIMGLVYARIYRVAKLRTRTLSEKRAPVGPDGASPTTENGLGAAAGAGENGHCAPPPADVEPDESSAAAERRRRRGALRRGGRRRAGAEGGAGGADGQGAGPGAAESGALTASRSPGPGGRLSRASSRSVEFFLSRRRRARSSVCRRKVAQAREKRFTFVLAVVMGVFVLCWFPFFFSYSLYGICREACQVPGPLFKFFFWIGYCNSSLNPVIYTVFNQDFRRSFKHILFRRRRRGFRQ
# Assay type: functional
Known AC50 of a selection of molecules

C=C[C@@]1(C)CC(=O)[C@]2(O)[C@@]3(C)[C@@H](O)CCC(C)(C)[C@@H]3[C@H](OC(=O)CCN(C)C)[C@H](OC(C)=O)[C@@]2(C)O1; > 30 µM

(Q) Given the molecule CS(=O)(=O)OCCCCOS(C)(=O)=O , what is its reported AC50?
(A) > 30 µM

(Q) # repeat for COc1cccc(N(C)C(=S)Oc2ccc3c(c2)CCCC3)n1 [LIRANAFTATE]
(A) > 30 µM

---

Quick record: AC50, Motilin receptor (Homo sapiens).

Some entries whose results are on file:
C[C@H]1Oc2cc(cnc2N)-c2c(nn(C)c2C#N)CN(C)C(=O)c2ccc(F)cc21; > 30 µM
CC(C)C[C@H](CN)CC(=O)O; > 30 µM
CNCCCC1c2ccccc2C=Cc2ccccc21; > 10 µM
CC(=O)OCC(=O)[C@@]1(O)CC[C@H]2[C@@H]3CCC4=CC(=O)CC[C@]4(C)C3=CC[C@@]21C [ANECORTAVE ACETATE]; > 10 µM
CC(=O)OCC(CCn1cnc2cnc(N)nc21)COC(C)=O; > 10 µM
CN(C)C(=O)Oc1cc(OC(=O)N(C)C)cc(C(O)CNC(C)(C)C)c1 (configuration not stated); > 30 µM
CC[C@H]1OC(=O)[C@H](C)[C@@H](O[C@H]2C[C@@](C)(OC)[C@@H](O)[C@H](C)O2)[C@H](C)[C@@H](O[C@@H]2O[C@H](C)C[C@H](N(C)C)[C@H]2O)[C@](C)(OC)C[C@@H](C)C(=O)[C@H](C)[C@@H](O)[C@]1(C)O; > 30 µM
COc1ccc2c(c1)[C@]13CCCC[C@@H]1[C@H](C2)N(C)CC3; > 10 µM

(Q) Please report the recorded AC50 for C=C[C@@]1(C)CC(=O)[C@]2(O)[C@@]3(C)[C@@H](O)CCC(C)(C)[C@@H]3[C@H](OC(=O)CCN(C)C)[C@H](OC(C)=O)[C@@]2(C)O1 .
(A) 7.8 µM

(Q) Now this one: O=C1NC(=O)C(c2ccccc2)(c2ccccc2)N1
(A) > 30 µM

(Q) Would you kindly repeat that for CC(=O)Oc1ccccc1C(=O)Nc1ncc([N+](=O)[O-])s1 [NITAZOXANIDE] ?
(A) 13 µM

(Q) Moving on to the next compound: COC(=O)N[C@@H](C)CNc1nccc(-c2cn(C(C)C)nc2-c2cc(Cl)cc(NS(C)(=O)=O)c2F)n1
(A) > 30 µM

---

# Target Or Test System: Motilin receptor (Homo sapiens); note: assay procedure not described here
# Sequence (O43193 whole entry): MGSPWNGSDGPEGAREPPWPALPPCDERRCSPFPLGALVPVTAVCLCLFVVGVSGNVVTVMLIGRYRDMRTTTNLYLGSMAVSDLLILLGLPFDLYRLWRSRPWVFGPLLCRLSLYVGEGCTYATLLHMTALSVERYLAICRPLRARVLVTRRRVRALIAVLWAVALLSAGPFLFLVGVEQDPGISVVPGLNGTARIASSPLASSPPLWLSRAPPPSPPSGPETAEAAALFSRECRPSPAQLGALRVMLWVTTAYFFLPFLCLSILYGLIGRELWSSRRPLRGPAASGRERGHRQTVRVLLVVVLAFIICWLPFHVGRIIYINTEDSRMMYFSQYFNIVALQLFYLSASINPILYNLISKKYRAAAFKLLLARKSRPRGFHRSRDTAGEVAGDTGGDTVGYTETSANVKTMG
Measurement Type: AC50

(Q) Item CCCC(C)(COC(N)=O)COC(=O)NC(C)C (stereo not drawn) has what recorded AC50?
(A) > 10 µM

(Q) Similarly, C=CC1=C(C(=O)O)N2C(=O)[C@@H](NC(=O)/C(=N\OCC(=O)O)c3csc(N)n3)[C@H]2SC1 ?
(A) > 30 µM

---

# Target Or Test System: 3',5'-cyclic-AMP phosphodiesterase 4A (Homo sapiens, UniProt P27815); note: assay procedure not described here
# Sequence (P27815 whole entry): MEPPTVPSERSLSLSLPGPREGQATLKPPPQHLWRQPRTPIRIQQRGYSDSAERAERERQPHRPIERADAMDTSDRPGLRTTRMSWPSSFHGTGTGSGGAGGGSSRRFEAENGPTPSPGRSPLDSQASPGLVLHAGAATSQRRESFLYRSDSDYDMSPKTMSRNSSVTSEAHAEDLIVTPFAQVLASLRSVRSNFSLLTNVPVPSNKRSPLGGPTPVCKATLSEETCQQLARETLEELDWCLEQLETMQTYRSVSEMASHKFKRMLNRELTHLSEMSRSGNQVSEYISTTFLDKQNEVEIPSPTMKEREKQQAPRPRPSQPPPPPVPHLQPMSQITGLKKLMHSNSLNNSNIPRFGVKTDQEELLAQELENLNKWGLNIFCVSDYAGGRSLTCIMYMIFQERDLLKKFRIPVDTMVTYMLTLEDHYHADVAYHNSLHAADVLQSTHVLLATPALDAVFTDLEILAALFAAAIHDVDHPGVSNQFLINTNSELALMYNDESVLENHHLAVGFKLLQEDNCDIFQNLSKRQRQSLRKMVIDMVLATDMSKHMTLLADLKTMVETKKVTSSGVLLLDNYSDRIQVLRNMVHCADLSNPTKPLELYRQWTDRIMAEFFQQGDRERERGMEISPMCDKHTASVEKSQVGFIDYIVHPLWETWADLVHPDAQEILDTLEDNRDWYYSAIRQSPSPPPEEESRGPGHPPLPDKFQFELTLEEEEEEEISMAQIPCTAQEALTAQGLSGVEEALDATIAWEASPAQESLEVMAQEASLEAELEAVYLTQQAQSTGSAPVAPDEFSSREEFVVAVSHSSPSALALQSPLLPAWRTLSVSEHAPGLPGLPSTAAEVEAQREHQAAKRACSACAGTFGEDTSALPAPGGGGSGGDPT
# Type: functional
Entries annotated with measured AC50

Here is how some compounds turned out for AC50.
NCCCC(O)(P(=O)(O)O)P(=O)(O)O; > 30 µM
CNC(=O)c1cc(Oc2ccc(NC(=O)Nc3ccc(Cl)c(C(F)(F)F)c3)c(F)c2)ccn1; > 30 µM
CC(=O)O[C@H]1C[C@H](O[C@H]2[C@@H](O)C[C@H](O[C@H]3[C@@H](O)C[C@H](O[C@H]4CC[C@@]5(C)[C@H](CC[C@@H]6[C@@H]5C[C@@H](O)[C@]5(C)[C@@H](C7=CC(=O)OC7)CC[C@]65O)C4)O[C@@H]3C)O[C@@H]2C)O[C@H](C)[C@H]1O[C@@H]1O[C@H](CO)[C@@H](O)[C@H](O)[C@H]1O [LANATOSIDE C]; > 30 µM

(Q) Form field: reported AC50 of CN1CCC[C@H]1c1cccnc1
(A) > 30 µM

(Q) Another: C#Cc1cccc(Nc2ncnc3cc(OCCOC)c(OCCOC)cc23)c1
(A) > 30 µM

(Q) Continue with C[C@@H]1C[C@H]2[C@@H]3CCC4=CC(=O)C=C[C@]4(C)C3=CC[C@]2(C)[C@H]1C(=O)CN1CCN(c2cc(N3CCCC3)nc(N3CCCC3)n2)CC1
(A) 19.4 µM

(Q) Same read-out for COc1cc([C@@H]2c3cc4c(cc3[C@@H](O[C@@H]3O[C@@H]5CO[C@@H](c6cccs6)O[C@H]5[C@H](O)[C@H]3O)[C@H]3COC(=O)[C@H]23)OCO4)cc(OC)c1O [TENIPOSIDE] ?
(A) > 30 µM

(Q) Likewise for Oc1c(I)cc(Cl)c2cccnc12 ?
(A) > 30 µM

(Q) // same read-out, input: Nc1ccncc1
(A) > 30 µM

(Q) Also CCCCCCCC(=O)N[C@H](CN1CCCC1)[C@H](O)c1ccc2c(c1)OCCO2 ?
(A) > 30 µM

(Q) Next record, please: CC(N)CCCC(C)(C)O (stereo not given)
(A) > 30 µM

(Q) Input C[n+]1ccccc1/C=N/O
(A) > 30 µM
